pIC50: −log10 of the molar value.
Compiled pIC50 measurements on Tyrosine-protein kinase JAK1 (Homo sapiens, UniProt P23458) taken from the literature.

Could you share which pIC50 value was measured for Cc1cnc2nc1Nc1cccc(c1)CCCNC(=O)c1ccc(cc1S(C)(=O)=O)-c1cnc(F)c(c1)N2 ?
> 8.00

Recorded pIC50 of CNC(=O)c1n[nH]c2cc(-c3cc(F)c(O)cc3CC(F)(F)F)nc(NCc3ncccc3N(C)S(C)(=O)=O)c12 , please.
8.68

Fill in the blank: the reported pIC50 of CCOC(=O)NC[C@H]1CC[C@H](n2c(CC#N)nc3cnc4ccsc4c32)CC1 is ____.
≥ 7.00

Please give the measured pIC50 for this molecule: Cc1ccc(-c2cc3c(NC4C5CC6CC4CC(O)(C6)C5)c(C(N)=O)cnn3c2)cc1 (stereo not shown)
7.20

Entry CCOC(=O)Cn1cc(Nc2ncc3ccn(CC(C(C)C)C(C)C)c3n2)cn1 : reported pIC50 = ?
> 7.00

Using the record for CC1CCOCc2cc(ccc2OC2CC2)Nc2nccc(n2)-c2ccc(cc2N)C(=O)NC1 (stereo not shown) , report its pIC50.
6.00 to 7.00

Item under review: N#CCC1(n2cc(-c3ccnc4[nH]ccc34)cn2)CN(C2CCN(C(=O)Nc3ccc(F)cc3Cl)CC2)C1 . Reported pIC50?
≥ 8.30

What value of pIC50 has been reported for the following molecule? N#CCC1(n2cc(-c3ncnc4[nH]ccc34)cn2)CN(C2CCN(C(=O)c3sccc3Cl)CC2)C1
≥ 8.30

// lookup pIC50 for Cc1cc(Nc2nc(NC3CCN(CCC#N)CC3)nc3sccc23)n[nH]1
8.79

I am curious: what pIC50 value has been reported for CCC(Cn1ccc2cnc(Nc3cnn(CC(=O)OCCC#N)c3)nc21)C(C)C (stereo not shown) ?
> 7.00

Would you mind telling me what pIC50 value was observed for Cn1cc(-c2cc3nccn3c(-c3cnn(C(CC#N)c4cccnc4)c3)n2)cn1 (stereo not shown) ?
7.00 to 8.00

Could you tell me which pIC50 is on file for CCCS(=O)(=O)N[C@H]1C[C@@H](n2cnc3cnc4[nH]ccc4c32)C1 ?
7.16

Consider the molecule NC(=O)c1cnn2cc(-c3ccc4scnc4c3)cc2c1NC12CC3CC(O)(CC(O)(C3)C1)C2 and give its measured pIC50.
8.37

Recorded pIC50 of Cc1cc(Nc2ncc(C)c(N3CC(CC#N)(N4CCN(CCCF)CC4)C3)n2)sn1 , please.
> 8.30

Suppose we examine the molecule N#CCC1(n2cc(-c3ncnc4[nH]ccc34)cn2)CN(C2CCN(C(=O)c3c(F)ccc(F)c3F)CC2)C1 ; what pIC50 value has been reported?
≥ 8.30

If you can, please state the reported pIC50 value of CN1CCc2cc(-c3cc4nccn4c(-c4cnn(C(CC#N)C5CC5)c4)n3)ccc2C1 (stereo not shown) .
7.00 to 8.00

---

// note: IC50 values for Tyrosine-protein kinase JAK1 (Homo sapiens) were reported in different studies

For the record Cn1cc(-c2cc3ncc(F)n3c(-c3cnn(C4(CC#N)CN(S(=O)(=O)C(F)(F)F)C4)c3)n2)cn1 , what value of IC50 is listed for Tyrosine-protein kinase JAK1 (Homo sapiens)?
10 to 100 nM

Test system Tyrosine-protein kinase JAK1 (Homo sapiens); read-out IC50; what value for CCOC(=O)c1cnc2[nH]ccc2c1N[C@H]1CC[C@H](O)C1 (single isomer, unassigned) ?
10 to 100 nM

Record O=C(NC12CC(n3cnc4cnc5[nH]ccc5c43)(C1)C2)C1CC1 : what is its IC50 with Tyrosine-protein kinase JAK1 (Homo sapiens)?
35.5 nM

Under Tyrosine-protein kinase JAK1 (Homo sapiens): IC50 value of CS(=O)(=O)N1CCC(N2CC(CC#N)(n3cc(-c4c(C#N)cnc5[nH]ccc45)cn3)C2)CC1 ?
≤ 5 nM

Short answer please: IC50, Tyrosine-protein kinase JAK1 (Homo sapiens), entry O=C(O)Cn1cc(Nc2ncc3ccn(CC4CCCCC4(F)F)c3n2)cn1 (centres unmarked)
< 100 nM

Kindly state the measured IC50 obtained for Cc1cc(Nc2ncc(C)c(N3CC(CC#N)(N4CCC(F)(F)CC4)C3)n2)sn1 with Tyrosine-protein kinase JAK1 (Homo sapiens).
< 5 nM

# returns recorded IC50 (system: Tyrosine-protein kinase JAK1 (Homo sapiens)) for CC1(C)[C@H](Nc2c(C(N)=O)cnn3cc(-c4ccccc4)cc23)CC[C@]1(C)NS(C)(=O)=O
2.6 nM

Notebook entry, Tyrosine-protein kinase JAK1 (Homo sapiens) assay: IC50 of CC1(C)OB(O)c2cc(Nc3nn(C4COCCC4C#N)cc3C(N)=O)ccc21 (centres unmarked) = ?
< 10 nM
